- Species on record: Rattus norvegicus
- Procedure Details: Open TG-GATES - Regimen: Daily Repeat
- Type: toxicity, organism-based, Sprague-Dawley
- Set-up: regimen Daily Repeat, gender Male, age 6 weeks
- Experimental Setup: in vivo, po, 0 mg/kg, […], tissue Plasma, route gavage, dose level Control, time 7 day
Assay Metric: Cl (meq/L)
Quick reminder: number only, in meq/L, skip the unit.

Below: 4 compounds and their reported Cl.
>>> print(df.to_string())
                                   compound  assay_result
0                     C=CCO [ALLYL ALCOHOL]           102
1  COc1ccc(Cl)cc1C(=O)NCCc1ccc(S(=O)(=O)NC(=O)NC2CCCCC2)cc1 [GLYBURIDE]         102.8
2  O=P1(N(CCCl)CCCl)NCCCO1 (centres undefined) [CYCLOPHOSPHAMIDE ANHYDROUS]           106
3     Cn1c(=O)c2c(ncn2C)n(C)c1=O [CAFFEINE]           106

For the compound COc1ccc(O)c(C(C)(C)C)c1.COc1ccc(O)cc1C(C)(C)C [BUTYLATED HYDROXYANISOLE] , what Cl is on record?
104.8

Cl for Cc1cccc(Nc2cc(Cl)nc(SCC(=O)O)n2)c1C [PIRINIXIC ACID] ?
105

Fill in: Cl of O=C1CN(/N=C/c2ccc(-c3ccc([N+](=O)[O-])cc3)o2)C(O)=N1 [DANTROLENE] is ___
106.8

Dear colleague, I am looking for the recorded Cl of the following compound: Cn1cnc([N+](=O)[O-])c1Sc1ncnc2nc[nH]c12 [AZATHIOPRINE]
107.2

I would be grateful if you could share the reported Cl for CS(=O)(=O)Nc1ccc([N+](=O)[O-])cc1Oc1ccccc1 [NIMESULIDE] .
105.2
